This collection of values is drawn from patent US12492188B2.

Entries annotated with measured IC50
Molecular target: human TLR9 (Homo sapiens, UniProt Q9NR96)
Construct: host or cells: HEK-Blue cells (HEK293-derived reporter line)
Sequence (Q9NR96 26-1032): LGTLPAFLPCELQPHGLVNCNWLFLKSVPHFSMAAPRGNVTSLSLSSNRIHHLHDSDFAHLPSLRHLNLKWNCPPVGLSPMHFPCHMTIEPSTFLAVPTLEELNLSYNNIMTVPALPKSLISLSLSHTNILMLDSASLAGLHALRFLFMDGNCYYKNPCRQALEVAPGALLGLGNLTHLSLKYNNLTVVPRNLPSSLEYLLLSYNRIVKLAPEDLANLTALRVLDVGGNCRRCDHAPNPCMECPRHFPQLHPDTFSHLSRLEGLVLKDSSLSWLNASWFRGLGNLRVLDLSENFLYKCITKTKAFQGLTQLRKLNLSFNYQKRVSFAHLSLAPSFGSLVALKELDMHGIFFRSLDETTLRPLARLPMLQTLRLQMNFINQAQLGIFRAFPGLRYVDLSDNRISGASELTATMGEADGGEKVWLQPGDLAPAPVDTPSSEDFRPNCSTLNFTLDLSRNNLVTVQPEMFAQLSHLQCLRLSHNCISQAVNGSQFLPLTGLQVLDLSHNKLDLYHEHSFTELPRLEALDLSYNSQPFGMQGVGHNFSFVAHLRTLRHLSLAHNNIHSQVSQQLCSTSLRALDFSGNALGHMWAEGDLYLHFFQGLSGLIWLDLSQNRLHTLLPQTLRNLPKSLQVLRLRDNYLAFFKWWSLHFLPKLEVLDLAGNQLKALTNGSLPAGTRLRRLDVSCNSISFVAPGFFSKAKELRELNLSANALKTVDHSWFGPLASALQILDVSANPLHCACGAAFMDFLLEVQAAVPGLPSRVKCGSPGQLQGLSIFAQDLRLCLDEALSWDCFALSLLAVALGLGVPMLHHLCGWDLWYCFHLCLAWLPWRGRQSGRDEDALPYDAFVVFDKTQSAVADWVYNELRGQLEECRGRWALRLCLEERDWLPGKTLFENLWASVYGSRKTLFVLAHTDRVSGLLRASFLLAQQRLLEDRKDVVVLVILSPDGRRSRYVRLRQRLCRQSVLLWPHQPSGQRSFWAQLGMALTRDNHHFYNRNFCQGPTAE
Assay: TLR9 inhibition reporter assay (HEK-Blue cells, secreted embryonic alkaline phosphatase reporter)
Assay type: cell-based
Details: HEK-Blue cells overexpressing human TLR9, stimulated with ODN2006 5 nM; read-out: TLR 9 IC50
measured-property: IC50 (nM)

[[record]]
compound = "COCCN1C2CCC1CC(N1CCC(c3ccc4c(nc(-c5ccc(S(C)(=O)=O)cc5)n4C)c3F)CC1)C2 (single isomer, unassigned) [Example 199]"
measured_property = "IC50"
quantity_unit = "nM"
test_result = 75

[[record]]
compound = "COc1ccc(-c2nc3c(C)cc(C4CCN(C5CC6CCC(C5)N6C5CCC5)CC4)cc3n2C)cc1OC (centres unmarked) [Example 147]"
measured_property = "IC50"
quantity_unit = "nM"
test_result = 199

[[record]]
compound = "Cn1c(-c2ccc(S(C)(=O)=O)cc2)nc2cc(C3CCN(C4CC5CCC(C4)N5CC4CC4)CC3)cc(F)c21 (centres unmarked) [Example 218]"
measured_property = "IC50"
quantity_unit = "nM"
test_result = 140

[[record]]
compound = "CC(C)N1C2CCC1CC(N1CCC(c3cc(F)c4nc(-c5ccc(S(C)(=O)=O)cc5)n(C)c4c3)CC1)C2 (single isomer, unassigned) [Example 106]"
measured_property = "IC50"
quantity_unit = "nM"
test_result = 387

[[record]]
compound = "Cc1cc(C2CCN(C3CCN(C4CC4)CC3)CC2)cc2c1nc(-c1ccc(S(C)(=O)=O)cc1)n2C"
measured_property = "IC50"
quantity_unit = "nM"
test_result = 421

[[record]]
compound = "COc1ccc(-c2nc3ccc(C4CCN(C5CCN(CC(C)C)CC5)CC4)c(F)c3[nH]2)cc1OC"
measured_property = "IC50"
quantity_unit = "nM"
test_result = 2200

[[record]]
compound = "CCn1c(-c2ccc(OC)c(OC)c2)nc2cc(C3CCN(C4CCN(CC(C)C)CC4)CC3)ccc21"
measured_property = "IC50"
quantity_unit = "nM"
test_result = 404

[[record]]
compound = "COc1ccc(-c2nc3cc(C4CCN(C5CCN(C6CC6)CC5)CC4)ccc3n2C)cc1OC"
measured_property = "IC50"
quantity_unit = "nM"
test_result = 852

[[record]]
compound = "Cn1c(-c2ccc(S(C)(=O)=O)cc2)nc2cc(C3CCN(C4CC5CCC(C4)N5C4CCC4)CC3)cc(F)c21 (single isomer, unassigned) [Example 216]"
measured_property = "IC50"
quantity_unit = "nM"
test_result = 269

[[record]]
compound = "Cn1c(-c2ccc(S(C)(=O)=O)cc2)nc2c(F)c(C3CCN(C4CC5CCC(C4)N5C4COC4)CC3)ccc21 (centres unmarked) [Example 195]"
measured_property = "IC50"
quantity_unit = "nM"
test_result = 490

[[record]]
compound = "CS(=O)(=O)c1ccc(-c2nc3c(F)cc(C4CCN(C5CC6CCC(C5)N6CC5CC5)CC4)cc3n2C2CC2)cc1 (single isomer, unassigned) [Example 324]"
measured_property = "IC50"
quantity_unit = "nM"
test_result = 42

[[record]]
compound = "Cc1cc(C2CCN(C3CCN(CC(C)C)CC3)CC2)cc2[nH]c(-c3cccc4ncsc34)nc12"
measured_property = "IC50"
quantity_unit = "nM"
test_result = 31

[[record]]
compound = "Cn1c(-c2ccc(S(C)(=O)=O)cc2)nc2c(F)cc(-c3ccc(CN4CCC(N5CCCC5)CC4)cc3)cc21"
measured_property = "IC50"
quantity_unit = "nM"
test_result = 5.3

[[record]]
compound = "CC(C)CN1C2CCC1CC(N1CCC(c3ccc4nc(-c5ccc(S(C)(=O)=O)cc5)n(C)c4c3F)CC1)C2 (single isomer, unassigned) [Example 266]"
measured_property = "IC50"
quantity_unit = "nM"
test_result = 97

